# cytotoxicity at 10 µM per record follows
assay: Toxicity liver stage against HepG2, at 10uM; assay type: cell-based; parameters: test concentration 10 uM, cell line HepG2-A16-CD81EGFP; conditions: human, HepG2-A16-CD81EGFP cells; read-out: INHIBITION
The reply should be a number in %, with the unit left off.

Some compounds with known cytotoxicity at 10 µM results, for comparison:
// lookup cytotoxicity at 10 µM for CN(CCN1CCCC1=O)CC(c1cccs1)N1CCOCC1 (stereo not drawn)
1.52

Would you kindly repeat that for O=C(NCCn1nc(C2CCNC2)c2cccnc21)C1CC1 (stereo not drawn) ?
-25.8

Also need Cn1cnnc1SC1CCc2ccccc2NC1=O (stereo not drawn) , thanks.
-0.373

// next record Cc1cnn(CC2CN(Cc3ccc(-n4cccn4)cc3)CCO2)c1 (stereo not drawn)
-0.674

Check Cc1nn(C)c(Cl)c1C1CCCN1CC(=O)Nc1cccnc1 (stereo not drawn) too.
-17.2

Also CCN1CCc2cc(-c3cncn3CC(=O)NC(C)(C)C)ccc21 , if possible.
-18.9

// query: O=C(Cc1ccc2c(c1)CCO2)N1CCN(c2cnccn2)CC1
-11.3

Further cases:
For the compound shown here, c1ccc2c(N3CCOCC3)cnnc2c1 , give the reported cytotoxicity at 10 µM.
-6.06

---

experiment: Toxicity liver stage against HepG2, at 10uM; type: cell-based; set-up: test concentration 10 uM, cell line HepG2-A16-CD81EGFP; conditions: human, HepG2-A16-CD81EGFP cells; read-out: INHIBITION
property.measured: cytotoxicity at 10 µM
Enter the number, and then the unit.

Form field: reported cytotoxicity at 10 µM of CCc1noc(C(C)N2CCN(Cc3noc(C4CC4)n3)CC2)n1 (stereo not drawn)
-2.13%

Now consider CN1CCC(NC(=O)c2cc(F)cc(Cl)c2O)C1=O (stereo not drawn) .
3.09%

Further cases:
Recorded cytotoxicity at 10 µM for CCN1CCC(NC(=O)Cn2cc(C)c3ccccc32)CC1 , please?
-1.74%

---

cytotoxicity at 10 µM values for the compounds below.
test: Toxicity liver stage against HepG2, at 10uM; type: cell-based; design: test concentration 10 uM, cell line HepG2-A16-CD81EGFP; conditions: human, HepG2-A16-CD81EGFP cells; read-out: INHIBITION
Entry rule: numbers only, all in %.

Query (compound): O=C1CN(C(=O)CSC2CCCc3ccccc32)CCN1 (stereo unspecified) ; field requested: cytotoxicity at 10 µM
-9.45

Continuing:
Quick one: cytotoxicity at 10 µM of O=C(CN1CCC(c2ccccc2)C1)NC(=O)NCC(F)(F)F (stereo unspecified) ?
-12.1

Now the compound O=C(C1CCOCC1)N1C[C@@H]2[C@@H](C1)OCC(=O)N2Cc1ccncc1
-8.8

Can you check Cc1cccn2cc(CN3CCCC(c4ccn[nH]4)C3)nc12 (stereo unspecified) next?
-5.95

Then O=c1oc2ccccc2n1CCN(CC1CCOC1)C1CC1 (stereo unspecified) ?
4.78

---

Overview of recorded cytotoxicity at 10 µM for various molecules
assay: Toxicity liver stage against HepG2, at 10uM; assay type: cell-based; design: test concentration 10 uM, cell line HepG2-A16-CD81EGFP; details: human, HepG2-A16-CD81EGFP cells; read-out: INHIBITION
Respond with the bare value in %.

Which cytotoxicity at 10 µM value belongs to CCN(CC)Cc1cc(C(=O)N2CCC3(CC2)NCCNC3=O)c(C)o1 ?
4.01

Likewise for CC(c1ccccc1Cl)N1CCN(C(=O)c2ccc(=O)[nH]c2)CC1 (stereo not given) ?
-7.85

What do you get for Cc1ncncc1C(=O)N1CCCN(Cc2nccn2C(C)C)CC1 ?
5.79

Try the molecule Cc1ccc(C(=O)N2C[C@@H](N3CCN(C)CC3)[C@H]3OCCC[C@H]32)cn1
-113

Try the molecule COc1ccccc1C(N)CC(C)C (stereo not given)
6

More entries:
Which measured cytotoxicity at 10 µM value corresponds to CN(c1ccc(-c2nc(C3CC3)no2)cn1)C1CCOCC1 ?
-10.8

// query: CCc1ccc(C(=O)N2CC(C(=O)NC(C)C)C3(CCOCC3)C2)cc1 (stereo not given)
3.65

Next molecule up: Cc1cnn(CCNCc2csc(-c3ccsc3)n2)c1
-6.75

Check CCNC(=O)NC(=O)CNC(C)(CC)c1nccs1 (stereo not given) too.
7.93

Also Cn1cc(C[C@H]2[C@H](N3CCOCC3)CCN2C(=O)c2ccco2)cn1 , if possible.
2.44

Values compiled from ChEMBL document CHEMBL4513216.
